parameter_measured: melting point

molecule	melting point
O=C(NC1CCN(c2ccccc2)C1)c1ccc([N+](=O)[O-])cc1 (configuration not stated)	153 to 155 °C
O=c1[nH]nc(-c2ccc(-n3ccnc3)cc2)c2cccnc12	359 to 361 °C
Cc1sc(CCc2ccc(CCCC3OC(=O)NC3=O)cc2)nc1-c1ccccc1 (configuration not stated)	111 to 112 °C

## Input Param item = CCCCC(=O)N(CCCOCc1ccccc1)Cc1ccc(-c2ccccc2-c2nnn[nH]2)cc1 ; retrieve measured melting point.
## Output 112 to 115 °C

## Input Param item = CC(N=Cc1ccc(O)cc1)c1ccc(Br)cc1 (single isomer, unassigned; (-)) ; retrieve measured melting point.
## Output 156 to 161 °C

## Input Param item = C[C@@H](c1ccc(-c2ccc(C(=O)NC3CC3)cn2)cc1)N1CC[C@](CC(C)(C)O)(c2ccccc2)OC1=O ; retrieve measured melting point.
## Output 191 to 194 °C

## Input Param item = CCN(CC)c1ccc2nc3c4ccccc4c(=Nc4cc(C)on4)cc-3oc2c1 ; retrieve measured melting point.
## Output 195 to 196 °C

## Input Param item = CNC(=O)CC1CCN(Cc2cnc3cc(NC(=O)c4ccc(-c5ccc(F)cc5)cc4)c(C)cc3c2)CC1 ; retrieve measured melting point.
## Output 243 °C

## Input Param item = Cc1cc(C)c2nc(C3CC3)n(Cc3ccc(C4(C(=O)O)CCCCC4)s3)c2n1 ; retrieve measured melting point.
## Output 175 to 176 °C

## Input Param item = Cc1c(C2CCC(c3ccccc3)(N(C)C)CC2)[nH]c2ccc(C#N)cc12 (configuration not stated) ; retrieve measured melting point.
## Output 235 to 240 °C

## Input Param item = CCOC(=O)C1OC1C(=O)NC(CC(C)C)C(OC)c1ccccc1 (configuration not stated) ; retrieve measured melting point.
## Output 108 to 109 °C

## Input Param item = COc1ccccc1N1CCN([C@@H]2Cc3c(O)ccc(O)c3C[C@H]2O)CC1 (relative stereo) ; retrieve measured melting point.
## Output 222 to 224 °C
